# MEASUREMENT_DESCRIPTION: in vitro
# EXPERIMENTAL_CONTEXT: human, pH 7.4, Endothelial permeability, Pe (average across concentrations), BLEC monolayer, 3 h, 37 °C
QUANTITY_KIND: Papp at 3 h (×10⁻⁶ cm/s)

{"columns": ["COMPOUND_STRUCTURE", "QUANTITY_KIND", "UNIT_TEXT", "REPORTED_VALUE"],
 "data": [
  ["CC[C@H](C)[C@@H]1NC(=O)[C@@H]2CCCN2C(=O)[C@@H]2CCCN2C(=O)[C@H]([C@@H](C)CC)NC(=O)[C@H](CO)NC(=O)[C@H](CCCCN)NC(=O)[C@H]([C@@H](C)O)NC(=O)[C@@H]2CSSC[C@H](NC1=O)C(=O)N[C@@H](Cc1ccccc1)C(=O)N1CCC[C@H]1C(=O)N[C@@H](CC(=O)O)C(=O)NCC(=O)N[C@@H](CCCNC(=N)N)C(=O)N2", "Papp at 3 h", "×10⁻⁶ cm/s", 3.8]
]}
